Tested on: Plasmodium berghei
assay_procedure: Screen against P. berghei liver stage (PbLuc), transformed with Luciferase, at 10uM
Type: functional, HepG2
condition_context: tested at 10 uM
The whole screen tested about 69,000 compounds, of which about 8,600 (12%) showed an effect of 50% or more. The full list was thinned out, with strong results kept by preference.
result_type: INHIBITION (%)
The figure you give is taken to be in %; do not add the unit.

query: I'd like to know its INHIBITION. The molecule in question is c1coc(CN2CCO[C@@]3(CCC[C@@H]3COCc3nccs3)C2)c1
result: 53.2

query: Which measured INHIBITION value corresponds to Cc1cc(C)c2c(N3CCN(Cc4ncccc4C)CC3)ncnc2n1 ?
result: 58.1

query: Looking for the measured INHIBITION of COC[C@@H]1CCC[C@@]12CN(Cc1ccco1)CCO2 , can you help?
result: -0.813

query: Reported INHIBITION, molecule CN(Cc1ccncc1)C1COC2(CCN(c3ncc(F)cn3)CC2)C1 (stereo not drawn) : ____
result: 37.8

query: Query (molecule): CN(Cc1ccncc1)C1COC2(CCN(Cc3cccs3)CC2)C1 (stereo not drawn) ; field requested: INHIBITION
result: 4.57

query: Find the recorded INHIBITION belonging to CC(C)c1noc(CCCC(=O)NC(C)c2ccccn2)n1 (stereo not drawn) and report it.
result: -30.6

query: Please report the recorded INHIBITION for CCc1cccc(-n2nnc(C(=O)O)c2-c2ccncc2)c1 .
result: 45.8

query: What value of INHIBITION has been reported for the following molecule? COC[C@@H]1CCC[C@]12CN(Cc1ccco1)CCO2
result: 8.67

query: Using the record for CCOC[C@@H]1CCC[C@@]12CN(Cc1nccs1)CCO2 , report its INHIBITION.
result: 35.8

query: Request the reported INHIBITION associated with COC[C@@H]1CCC[C@@]12CN(C(=O)N1CCCC1)CCO2
result: 52.1

query: Item under review: COC[C@H]1CCC[C@]12CN(C(=O)NCc1ccccc1)CCO2 . Reported INHIBITION?
result: -1.58

query: Requested read-out: INHIBITION. Entry: c1cncc(OC[C@@H]2CCC[C@@]23CN(Cc2nccs2)CCO3)c1
result: 66

query: Which INHIBITION reading was recorded for the molecule Cc1noc(C(C)N(C)CC(=O)NCCc2ccc(Cl)cc2)n1 (stereo not drawn) ?
result: -9.3

* * *

System: Plasmodium berghei
assay_procedure: Screen against P. berghei liver stage (PbLuc), transformed with Luciferase, at 10uM
Format: functional, HepG2
condition_context: tested at 10 uM
In all, about 69,000 compounds went through this assay and about 8,600 (12%) showed an effect of 50% or more. What follows is part of a selection rich in strong results, with near analogues and random picks from the rest.
result_type: INHIBITION
A complete answer gives the number followed by the unit.

Consider the reported INHIBITION for these compounds:
Cc1nc(CN2CCN(Cc3ccoc3)Cc3cccnc32)cs1; 21.6%
COCCN(C/C=C/c1ccccc1)Cc1nccs1; -12.6%
CN1CC(Oc2ccccc2)=NC(SCC(=O)c2ccccc2)=N1; 1.98%
Cc1nc(N)ncc1C(=O)N1CCCC(CCc2ccccc2F)C1 (stereo unspecified); 43.9%
CN1CC(Oc2ccc(Cl)cc2)=NC(SCC(=O)c2ccccc2)=N1; 12.9%

query: Entry under review: Cc1cnc(C(=O)N2C[C@@H]3CC[C@H]2CN(c2cnccn2)C3)cn1 . Reported INHIBITION?
result: -55.1%

* * *

System: Plasmodium berghei
assay_procedure: Screen against P. berghei liver stage (PbLuc), transformed with Luciferase, at 10uM
Format: functional, HepG2
condition_context: tested at 10 uM
In all, about 69,000 compounds went through this assay and about 8,600 (12%) showed an effect of 50% or more. For the sample, strong results were picked, then their nearest neighbours and some compounds at random.
result_type: INHIBITION (%)
Please give a number only; it is taken to be in %.

Here is how some compounds turned out for INHIBITION.
CC[C@@H]1N(Cc2ccncc2)CCC[C@]12CCC(=O)N2C; 18.6
COCc1noc(Cn2c(=O)[nH]c3ccccc32)n1; 74
Cc1nc(C)c(C(=O)N2CCc3cc(F)ccc3C2C)o1 (centres undefined); 52.6
CCC(O)CN1CCN(C(=O)c2cccn2Cc2cccnc2)CC1 (centres undefined); 7.12
CCCN1CCC(Cc2nc(CN3CCN(C)CC3)no2)CC1; 54.4

query: Record Cc1cc(-c2cnc(NCc3cccnc3)nc2C(C)C)on1 : what is its INHIBITION with Plasmodium berghei?
result: 69.4

query: Could you share what INHIBITION was measured for Cc1cccc(-c2nccnc2C2CCCN(C)C2)c1C (centres undefined) , tested on Plasmodium berghei?
result: 35.2

query: Quick check: INHIBITION on Plasmodium berghei, item Cc1cc2c(c(=O)n1CCC(=O)O)C=CC(C)(C)O2 ?
result: 10.9

* * *

Test system: Plasmodium berghei
assay_procedure: Screen against P. berghei liver stage (PbLuc), transformed with Luciferase, at 10uM
Format: functional, HepG2
condition_context: tested at 10 uM
About 8,600 (12%) of roughly 69,000 compounds showed an effect of 50% or more. For the sample, strong results were picked, then their nearest neighbours and some compounds at random.
result_type: INHIBITION (%)
All answers are understood in %, so give the number only.

Below: 2 compounds and their reported INHIBITION.
O=C(c1ccc(F)cc1Cl)N1CCC(Nc2cccnn2)CC1; 41.4
CSC1=Nc2c(cnn2-c2ccccc2)C2=NCCCN12; 73.9

Continue with the compound presented below.
query: What value of INHIBITION has been reported for the following compound? Cn1cc(CN2C[C@H](N3CCOCC3)[C@@H]3OCCC[C@@H]32)cn1
result: 54.1

* * *

Test system: Plasmodium berghei
assay_procedure: Screen against P. berghei liver stage (PbLuc), transformed with Luciferase, at 10uM
Format: functional, HepG2
condition_context: tested at 10 uM
Hit rate of the full screen: of about 69,000 compounds, about 8,600 (12%) showed an effect of 50% or more. For the sample, strong results were picked, then their nearest neighbours and some compounds at random.
result_type: INHIBITION
Just so you know, I need the unit written after the number.

Cn1cc(CN2CCC3(CCCN3S(C)(=O)=O)CC2)cn1; 53.5%
Cc1cc(C(=O)NC(C)Cc2ccccc2Cl)n(C)n1 (centres undefined); -39.3%
COCC(=O)N1CCC2(CCCN(Cc3cnn(C)c3)C2)C1 (centres undefined); 47.4%

query: Dear colleague, I am looking for the recorded INHIBITION of the following molecule: N#Cc1cc(F)ccc1Cn1cnc(C2CCC2)cc1=O
result: 26.6%

* * *

Tested on: Plasmodium berghei
assay_procedure: Screen against P. berghei liver stage (PbLuc), transformed with Luciferase, at 10uM
Type: functional, HepG2
condition_context: tested at 10 uM
Hit rate of the full screen: of about 69,000 compounds, about 8,600 (12%) showed an effect of 50% or more. The sample holds strong results, similar compounds and a random draw of the others, so the mix is not that of the screen.
result_type: INHIBITION

Cn1cc(CN2CCc3ccc(=O)n(CC4CC4)c3CC2)cn1; 89.1%
CS(=O)(=O)N1C[C@H](C(=O)Nc2cccnc2)C[C@H]2OCC[C@H]21; 30.5%
Cc1cc(C)cc(N(CCC#N)C(=O)CN2CCCC2c2cccs2)c1 (stereo not drawn); 6.54%

query: Item Cc1c(NC(C)C(C)C)cccc1C(=O)NCc1nccn1C (stereo not drawn) has what recorded INHIBITION?
result: 57.4%

query: Fill in: INHIBITION of Cc1ccc(-c2nc(CC(=O)NCC3CCCN(C(C)C)C3)cs2)o1 (stereo not drawn) is ___
result: 38.7%

query: Entry O=C(NCCNC(=O)c1ccc(Cl)cc1)NCCn1cccc1 has what INHIBITION?
result: -11.9%

query: For CC(C)OC(=O)CNC(=O)Nc1ccc(-c2nc(C(C)C)no2)cc1 , what is its reported INHIBITION?
result: -17.8%

query: Returns the measured INHIBITION for the input molecule. Input: C=C(C)COc1ccccc1CNC(CC)c1ccnn1C (stereo not drawn)
result: 36.7%

query: I have this molecule here, CNc1ccc(CC2CCCN(C(=O)c3scnc3C)C2)nn1 (stereo not drawn) , and I need its recorded INHIBITION.
result: 26.3%

query: Return reported INHIBITION; argument: Cn1c(NCC(O)c2ccc(F)cc2)c(C#N)c(=O)n(C)c1=O (stereo not drawn)
result: -60.8%

query: Look up INHIBITION: C=C(C)COc1cccc(CNC(COC)c2ccnn2C)c1 (stereo not drawn)
result: 37.6%

query: Reported INHIBITION for CCOCC(=O)N1CCC(C2CCN(Cc3ccc(Cl)cc3)C2)CC1 (stereo not drawn) : what is it?
result: 26.9%

query: GET /values?readout=INHIBITION&item= Cc1ccc(N(CCC#N)C(=O)CN2CCCC2c2ccsc2)cc1 (stereo not drawn)
result: 3.45%

query: Sample O=C(N1CCCC1)C12CC(CN1Cc1nccs1)C2 — what was its INHIBITION?
result: -2.03%

query: Give the measured INHIBITION of Cc1ccc(-c2nc(CC(=O)NCC(C)N3CCOCC3)cs2)o1 (stereo not drawn) .
result: 67.5%

query: Dear colleague, I am looking for the recorded INHIBITION of the following molecule: Cc1c(NC(C)C(C)C)cccc1C(=O)NCc1nnc(C)n1C (stereo not drawn)
result: -20.8%

query: Entry N#CCCN(C(=O)CN1CCCC1c1ccsc1)c1ccccc1 (stereo not drawn) : reported INHIBITION = ?
result: -2.95%

query: Given the entry CC(=O)NCC(=O)N1CCC(C2CCN(Cc3ccc(Cl)cc3)C2)CC1 (stereo not drawn) , report its measured INHIBITION.
result: 26.9%

query: Which value of INHIBITION has been reported for CC(=O)Nc1ccc(C(=O)NCCCn2cccc2)cc1 in the records?
result: 18.7%

Values were extracted from ChEMBL document CHEMBL4513216.
